Assay: chemical genetic growth profiling, strain panel (AID 1159580);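 further: tested at 20 µM; growth read once vehicle control cultures reached saturation at 30 °C; lower values mean less growth of the strain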
Conditions: S. cerevisiae deletion strains, growth OD, locus YGR229C, strain SMI1
About 2,000 (36%) of roughly 5,500 compounds were called active. Inconclusive results (about 18%) are left out. No stated cut-off is given here; in the data, active means normalized growth mostly below about 0.91 (no sharp cut-off); inconclusive means no clear call, values can overlap the other calls; inactive means mostly above about 0.92. This is one part of the list. Where a SMILES comes first, the peptide text is derived from it.
Classes used: YES (active), NO (inactive)

>  <compound>
C[C@H](CCC(=O)O)[C@H]1CCC2C3C(CC[C@@]21C)[C@@]1(C)CC[C@@H](O)C[C@H]1C[C@@H]3O (stereo partly specified)

>  <answerLabel>
NO

$$$$
>  <compound>
COc1ccc(OCC(N)=O)cc1

>  <answerLabel>
NO

$$$$
>  <compound>
NC(N)=O

>  <answerLabel>
NO

$$$$
>  <compound>
CCn1cnc2c(Nc3cccc(Cl)c3)nc(N[C@@H]3CCCC[C@@H]3N)nc21

>  <answerLabel>
NO

$$$$
>  <compound>
CCCCS(=N)(=O)CCC(N)C(=O)O (stereo unspecified)

>  <answerLabel>
NO

$$$$
>  <compound>
O=c1cc(-c2ccccc2)oc2cc(O)c(O)c(O)c12

>  <answerLabel>
YES

$$$$
>  <compound>
N[C@@H]1[C@@H](O)[C@H](O)[C@@H](CO)O[C@H]1O

>  <answerLabel>
NO

$$$$
>  <compound>
N#Cc1cccc(Cn2c(=O)oc3ccccc32)c1

>  <answerLabel>
NO

$$$$
>  <compound>
COC(=O)CCCOc1ccc(Cl)cc1Cl

>  <answerLabel>
NO

$$$$
>  <compound>
CCC(=O)c1ccc2c(c1)N(CC(C)N(C)C)c1ccccc1S2 (stereo unspecified)

>  <answerLabel>
NO

$$$$
>  <compound>
Cc1nc2n(c(=O)c1CCN1CCC(c3noc4cc(F)ccc34)CC1)CCCC2

>  <answerLabel>
NO

$$$$
>  <compound>
C#CC(N)CCC(=O)O (stereo unspecified)

>  <answerLabel>
NO

$$$$
>  <compound>
CCCC(C(=O)OCCN(CC)CC)(c1ccccc1)c1ccccc1

>  <answerLabel>
NO

$$$$
>  <compound>
COc1ccc(C(=O)C2CCNCC2)cc1

>  <answerLabel>
NO

$$$$
>  <compound>
CC(C)CCCC(C)C1CCC2C3CC[C@H]4CCCC[C@]4(C)C3CC[C@]12C (stereo partly specified)

>  <answerLabel>
NO

$$$$
>  <compound>
CC(CN1c2ccccc2Sc2cccnc21)N(C)C (stereo unspecified)

>  <answerLabel>
NO

$$$$
>  <compound>
CC(CCC(=O)O)[C@H]1CCC2C3CC[C@@H]4C[C@H](O)CC[C@]4(C)C3CC[C@@]21C (stereo partly specified)

>  <answerLabel>
YES

$$$$
>  <compound>
Cc1cscc1S(=O)(=O)c1ccc(Cl)cc1

>  <answerLabel>
NO

$$$$
>  <compound>
CC(CN(C)C)CN1c2ccccc2Sc2ccccc21 (stereo unspecified)

>  <answerLabel>
NO

$$$$
>  <compound>
CCN(CC)C(C)C(=O)N1c2ccccc2Sc2ccccc21 (stereo unspecified)

>  <answerLabel>
NO

$$$$
>  <compound>
NNCCc1ccccc1

>  <answerLabel>
NO

$$$$
>  <compound>
COc1ccc(C(=O)CC(=O)c2ccc(C(C)(C)C)cc2)cc1

>  <answerLabel>
NO

$$$$
>  <compound>
CN(C)CCOC(=O)COc1ccc(Cl)cc1

>  <answerLabel>
NO

$$$$
>  <compound>
COc1cc([C@H]2Oc3cc([C@H]4Oc5cc(O)cc(O)c5C(=O)[C@@H]4O)ccc3O[C@@H]2CO)ccc1O

>  <answerLabel>
NO

$$$$
>  <compound>
CC(N)=O

>  <answerLabel>
NO

$$$$
>  <compound>
O=C(O)CCCOc1ccc(Cl)cc1Cl

>  <answerLabel>
NO

$$$$
>  <compound>
CN(C(=O)CN(CCO)CC(=O)N(C)C(C)(C)Cc1ccccc1)C(C)(C)Cc1ccccc1

>  <answerLabel>
NO

$$$$
>  <compound>
FC(F)(F)c1cc(-n2c(CCc3nc(-c4ccc(Cl)cc4)no3)n[nH]c2=S)cc(C(F)(F)F)c1

>  <answerLabel>
NO

$$$$
>  <compound>
CCN(CC)C(C)CN1c2ccccc2Sc2ccccc21 (stereo unspecified)

>  <answerLabel>
NO

$$$$
>  <compound>
O=C1/C(=C/c2ccc(Cl)cc2)COc2ccc(F)cc21

>  <answerLabel>
NO

$$$$
>  <compound>
Cc1cccc(Nc2ccncc2S(=O)(=O)NC(=O)NC(C)C)c1

>  <answerLabel>
NO

$$$$
>  <compound>
O=C(Nc1ccccc1)c1ccccc1O

>  <answerLabel>
NO

$$$$
>  <compound>
C=C[C@H]1CN2CC[C@H]1C[C@@H]2[C@H](O)c1ccnc2ccccc12

>  <answerLabel>
NO

$$$$
>  <compound>
Cc1ccc(S(=O)(=O)Nc2ccc(C)c([N+](=O)[O-])c2)cc1

>  <answerLabel>
NO

$$$$
>  <compound>
Cc1c(S(=O)(=O)c2ccc(Cl)cc2)csc1S(=O)(=O)N/N=C\c1c(Cl)cccc1Cl

>  <answerLabel>
NO

$$$$
>  <compound>
O=C(O)c1ccccc1C(=O)Nc1ccc(S(=O)(=O)Nc2nccs2)cc1

>  <answerLabel>
NO

$$$$
>  <compound>
NC(=NCCCC(N)C(=O)O)N[N+](=O)[O-] (stereo unspecified)

>  <answerLabel>
NO

$$$$
>  <compound>
N#C/C(=C\c1cccc(O)c1)C(=O)O

>  <answerLabel>
NO

$$$$
>  <compound>
NCCCCC(N)C(=O)NC(Cc1ccc(O)cc1)C(=O)NC(CCCCN)C(=O)O (stereo not drawn) (H-Lys-Tyr-Lys-OH; configuration not given here)

>  <answerLabel>
NO

$$$$
>  <compound>
C[C@]12C=CC(=O)C=C1CCC1C3C[C@@H](O)[C@](O)(C(=O)CO)[C@@]3(C)C[C@H](O)[C@@]12F (stereo partly specified)

>  <answerLabel>
NO

$$$$
>  <compound>
COC(=O)c1c(C)cc(OC(=O)c2c(C)cc(O)c(C=O)c2O)c(C)c1O

>  <answerLabel>
NO

$$$$
>  <compound>
NC(N)=NCCC[C@@H](NC(=O)[C@@H](N)Cc1ccc(O)cc1)C(=O)O

>  <answerLabel>
NO

$$$$
>  <compound>
CC(=O)Nc1ccccc1

>  <answerLabel>
NO

$$$$
>  <compound>
COC(=O)CCC(C)C1CCC2C3CC[C@@H]4C[C@H](O)CC[C@]4(C)C3C[C@H](O)[C@]12C (stereo partly specified)

>  <answerLabel>
YES

$$$$
>  <compound>
CC1(C)C(O)CC(O)C2(C)C1CC(O)C1(C)C2CCC2(C)C(c3ccoc3)OC(=O)C3OC321 (stereo unspecified)

>  <answerLabel>
NO

$$$$
>  <compound>
N/C(=N/O)c1csc(-c2ccc(F)cc2F)n1

>  <answerLabel>
NO

$$$$
